# experimentSummary: Cytotoxicity activity against human HepG2 cells assessed by CellTiter-Glo luminescent cell viability assay.
# Assay type: toxicity, cell-based
# Design: assay stage confirmatory assay, source tissue liver
# measurementParameters: HepG2 cells, read-out: IC50 relative
Calls of active or inactive are those of the source. How the calls were made is not given here.
Tick one outcome: 1 for active, 0 for inactive

// below: answered compounds
Task item: For C[C@]1(c2cccc(C#N)c2)NC(=O)N(Cc2noc(-c3ccsc3)n2)C1=O , what call appears in the results of this test?
Reply: 0

Task item: Try the compound CN(Cc1ccc2c(c1)OCCO2)C(=O)[C@H]1CCCN(S(N)(=O)=O)C1
Reply: 0

Task item: // repeat for CC1(C)CC[C@]2(C(=O)O)CC[C@]3(C)C(=CC[C@@H]4[C@@]5(C)CCC(=O)C(C)(C)[C@@H]5CC[C@]43C)[C@@H]2C1 and report
Reply: 0

Task item: Repeat with O=C(Nc1ccccc1-c1cn2c(CN3CCNCC3)csc2n1)c1cnc2ccccc2n1
Reply: 1

Task item: Now the same for CC(C)c1ccc(S(=O)(=O)/N=C2/C=C(Sc3nc[nH]n3)C(=O)c3ccccc32)cc1
Reply: 1

Continuing:
Task item: # outcome recorded in this test, key = O=c1cc(-c2ccc(O)c(O)c2)oc2cc(O[C@@H]3O[C@H](CO)[C@@H](O)[C@H](O)[C@H]3O)cc(O)c12
Reply: 0

Task item: How about this compound: CCN1/C(=C/c2ccc3ccccc3[n+]2CC)C=Cc2ccccc21
Reply: 1

Task item: Next: Cc1c(O)cccc1C(=O)NC(CSc1ccccc1)C(O)CN1CC2CCCCC2CC1C(=O)NC(C)(C)C (stereo not drawn)
Reply: 1

Task item: Try CCS(=O)(=O)c1ccc(NC(=O)c2ccc(F)c(S(=O)(=O)N3CCCCC3)c2)cc1 next.
Reply: 0

Task item: Same for CCc1n[nH]cc1C(=O)N[C@H]1CC[C@H](Nc2nccc(-c3ccccn3)n2)C1
Reply: 1

Task item: What about O=C(C1CCCC1)N1CC(Oc2ccc(-c3noc(C4CCOCC4)n3)cc2)C1 ?
Reply: 1

Task item: Cool, now NC(=O)c1cc(NC(=O)CCSc2ccccc2Br)[nH]n1
Reply: 1

Task item: Likewise for O=S(=O)(Nc1ccc(Cl)c2cccnc12)c1c[nH]c2ncccc12 ?
Reply: 0

Task item: // query: O=C(NOC[C@H](O)CO)c1ccc(F)c(F)c1Nc1ccc(I)cc1F
Reply: 1

---

# experimentSummary: Cytotoxicity activity against human HepG2 cells assessed by CellTiter-Glo luminescent cell viability assay.
# Assay type: toxicity, cell-based
# Design: assay stage confirmatory assay, source tissue liver
# measurementParameters: HepG2 cells, read-out: IC50 relative
Active and inactive are the calls of the source. The rule behind the calls is not given here.
The reply should name one outcome from YES (active), NO (inactive)

Some solved entries appear below for comparison.
Task item: How was O=C(Cc1cnn(-c2ccccc2)c1)N1CCN(S(=O)(=O)c2ccc3c(c2)OCCCO3)CC1 classified in this test?
Reply: YES

Task item: Same again, this time with O=C(c1cc(-c2ccco2)on1)N1CCc2ccccc21
Reply: YES

Task item: Another compound to check: C[C@H]1Cc2c([nH]c3cc(Cl)c(F)cc23)[C@@]2(N1)C(=O)Nc1ccc(Cl)cc12 [CIPARGAMIN]
Reply: YES

Task item: And what about the compound COc1ccc2c(c1)C=C(C(=O)NCc1ccc(OC)c(OC)c1)CO2 ?
Reply: YES

Task item: Now give it for CN(C)CCNc1oc(-c2ccc(S(=O)(=O)N3CCCCCC3)cc2)nc1C#N too.
Reply: NO

Next up:
Task item: Look up the recorded call for COc1ccc2c(C)nc(Nc3nc(C)c(C)c(=O)[nH]3)nc2c1 in this test.
Reply: YES

---

# experimentSummary: Cytotoxicity activity against human HepG2 cells assessed by CellTiter-Glo luminescent cell viability assay.
# Assay type: toxicity, cell-based
# Set-up: assay stage confirmatory assay, source tissue liver
# measurementParameters: HepG2 cells, read-out: IC50 relative
Structures can show the parent of a compound that is named as a salt. Calls of active or inactive are those of the source. The rule behind the calls is not given here.
Choose the fitting class; nothing outside YES (active), NO (inactive) is accepted.

Observe how each entry below is paired with its result.
Task item: Could you check what this test reported for CC[S+]([O-])c1nc(-c2cccc(OCc3ccccc3)c2)cc(C(F)(F)F)n1 (stereo not given) ?
Reply: YES

Task item: Another compound: CCN1CCS/C1=C\C=C\C1=[N+](CC)CCS1
Reply: YES

Task item: One more compound: Fc1ccc([C@@H]2CCNC[C@H]2COc2ccc3c(c2)OCO3)cc1 [PAROXETINE HYDROCHLORIDE]
Reply: YES

Task item: Cc1ccc(NC(=O)c2cc3ccccc3c(=O)[nH]2)cc1 , same question.
Reply: NO

Task item: Now the compound CNCCCC1c2ccccc2C=Cc2ccccc21 [PROTRIPTYLINE HYDROCHLORIDE]
Reply: YES

Task item: Next compound: Fc1ccc(C(c2ccc(F)cc2)N2CCN(C/C=C/c3ccccc3)CC2)cc1 [FLUNARIZINE HYDROCHLORIDE]
Reply: NO

Further cases:
Task item: How was O=C(Nc1n[nH]c(C2CC2)n1)C1CC(=O)N(c2ccc(Br)cc2)C1 (stereo not given) classified in this test?
Reply: YES

Task item: Please do the same for Cc1c(C(=O)Nc2cccc(C(F)(F)F)c2)cc(-c2ccccc2)n1CCCN1CCOCC1 as well.
Reply: NO

---

# experimentSummary: Cytotoxicity activity against human HepG2 cells assessed by CellTiter-Glo luminescent cell viability assay.
# Type: toxicity, cell-based
# Parameters: assay stage confirmatory assay, source tissue liver
# measurementParameters: HepG2 cells, read-out: IC50 relative
Calls of active or inactive are those of the source. No rule for the calls is given here.
Outcome field: choose from True (active), False (inactive)

Solved entries:
Task item: Give the logged outcome of this assay for the following molecule: COc1ccc2cc(S(=O)(=O)N[C@H](CC(=O)N[C@H](Cc3ccc(CN4[C@H](C)CCC[C@@H]4C)cc3)C(=O)N(C)C(C)C)c3ccc4c(c3)OCO4)ccc2c1
Reply: True

Task item: CCC(=O)Nc1ccc(C(=O)Cn2ncc(Cl)c(Cl)c2=O)cc1 ?
Reply: True

Task item: Consider next the molecule COc1ccccc1OCCOCCOCCOc1ccccc1OC in the same way.
Reply: False

Task item: Check Cc1cccc2nc(C(=O)Nc3cccnc3-n3cccn3)cn12 too.
Reply: True

***
Task item: Tell me the recorded outcome of this test for CCOc1ccccc1CN1CCN(Cc2ccc(C)cc2)CC1CCO (stereo unspecified) .
Reply: False

Task item: Please give the result for CC(C)c1cc(-c2n[nH]c(=O)n2-c2ccc3c(ccn3C)c2)c(O)cc1O too.
Reply: True

Task item: For COc1cccc(S(=O)(=O)N2CCC3(CC2)CC(CCOc2ccncc2)CCO3)c1 (stereo unspecified) then?
Reply: True

---

# experimentSummary: Cytotoxicity activity against human HepG2 cells assessed by CellTiter-Glo luminescent cell viability assay.
# Assay type: toxicity, cell-based
# Set-up: assay stage confirmatory assay, source tissue liver
# measurementParameters: HepG2 cells, read-out: IC50 relative
The source made the active and inactive calls. The rule behind the calls is not given here.
Output constraint: value belongs to TRUE (active), FALSE (inactive)

Answered examples (6):
Task item: What is the recorded call for this compound in the test? O=C(CCCCCCNC(=O)c1cnc(N(c2ccccc2)c2ccccc2)nc1)NO [RICOLINOSTAT]
Reply: TRUE

Task item: Now give it for Cc1nn2c(ncc3c(=O)n(CCN(C)C)ccc32)c1-c1ccc(Cl)cc1 too.
Reply: TRUE

Task item: Now consider O=c1[nH]ccc2c(Br)cccc12 and answer again.
Reply: FALSE

Task item: O=C(Nc1ccc([N+](=O)[O-])cc1Cl)c1cc(Cl)ccc1O [NICLOSAMIDE] , same question.
Reply: TRUE

Task item: Next: CC(C)[C@H](NC1CCN(C(=O)c2ccoc2)CC1)c1ccccc1
Reply: TRUE

Task item: Continue with CC1(C)CC[C@]2(C(=O)O)CC[C@]3(C)[C@H](C(=O)C=C4[C@@]5(C)C=C(C#N)C(=O)C(C)(C)[C@@H]5CC[C@]43C)[C@@H]2C1 [BARDOXOLONE]
Reply: TRUE

***
Task item: Name the outcome recorded for O=C(Nc1ccc(O[C@H]2CCOC2)cc1)c1cn2ccnc2s1 in the assay.
Reply: TRUE

Task item: Another compound to check: O=C1CN2C(=C1c1nc3ccccc3s1)NC(=O)c1sccc12
Reply: TRUE

Task item: Would you mind doing Cc1cccc2nc(C(=O)Nc3ccc4c(c3)OC3(CCCC3)O4)cn12 as well?
Reply: TRUE

---

# experimentSummary: Cytotoxicity activity against human HepG2 cells assessed by CellTiter-Glo luminescent cell viability assay.
# Assay type: toxicity, cell-based
# Design: assay stage confirmatory assay, source tissue liver
# measurementParameters: HepG2 cells, read-out: IC50 relative
Activity calls are given as the source filed them. The rule behind the calls is not given here.
Give one outcome, nothing more. List: Y = active, N = inactive

Task item: // param item: C[C@]12CC/C(=N\OCCN)C[C@@H]1C(=O)C[C@@H]1[C@@H]2CC[C@]2(C)C(=O)CC[C@@H]12 ; yields the recorded call
Reply: Y

Task item: Cool, now Cn1c(=O)c(F)c(Nc2ccc(I)cc2F)c2c(=O)n(C[C@@H](O)CO)cnc21 [TAK-733]
Reply: Y

Task item: Similarly, COc1ccc(-c2nc(CN3CCN(C(=O)c4ccc5c(c4)OCO5)CC3)cs2)cc1 ?
Reply: Y

Task item: Ok, now O=C(Nc1ccc(Cl)cc1)N1CCCN(Cc2ccc(F)cc2)C1
Reply: Y

Task item: Try this compound too: CCCCN(CC)CCCNC(=O)c1cc2c(=O)n(C)c3ccccc3c2n1C
Reply: Y

Next:
Task item: Any idea what this test logged for COc1cc(/C=C(\C#N)C(=O)Nc2nnc(C(F)(F)F)s2)ccc1OCc1ccc(C(F)(F)F)cc1C(F)(F)F ?
Reply: Y

Task item: Ok, now CCn1c(=O)c2sc(N3CCCC3)nc2n(CC(=O)Nc2ccc(OC)cc2)c1=O
Reply: N

Task item: One more compound: O=C(Nc1nc(-c2cccnc2)cs1)c1ccccn1
Reply: Y

Task item: And what about the compound COc1ccc(C[C@H]2NC[C@H](O)[C@H]2OC(C)=O)cc1 [ANISOMYCIN] ?
Reply: Y

Task item: Would you kindly repeat that for CNc1nc(N2CCN(C)CC2)nc2ccccc12 ?
Reply: Y
